// provenance: ChEMBL document CHEMBL4043066

So I've got a bunch of compounds here, and I need their IC50 values.
- ASSAY TARGET: Bromodomain-containing protein 4 (Homo sapiens, UniProt O60885)
- PROTOCOL DETAILS: Inhibition of His-tagged BRD4 (unknown origin) using acetyl-histone H4 as substrate after 35 mins by TR-FRET assay

Considering Cc1cc(N2C(=O)c3c(c(CO)nn3C3CC3)[C@H]2c2ccc(Cl)cc2)cn2c(C)nnc12 , its IC50 with Bromodomain-containing protein 4 (Homo sapiens, UniProt O60885) was recorded as < 11 nM

Considering Cc1nn(C2CC2)c2c1[C@@H](c1ccc(Cl)cc1)N(c1cc(C)c3nnc(C)n3n1)C2=O , its IC50 with Bromodomain-containing protein 4 (Homo sapiens, UniProt O60885) was recorded as < 11 nM

###

- ASSAY TARGET: Bromodomain-containing protein 4 (Homo sapiens, UniProt O60885)
- PROTOCOL DETAILS: Inhibition of BRD4 bromodomain 1 (unknown origin) using biotinylated substrate after 1 hr by AlphaLisa assay
PROPERTY: pIC50
// pIC50 here means minus log10 of the molar concentration (mol/L)

// pIC50 value for CCOC(=O)CC1N=C(c2ccc(Cl)cc2)c2cc(OC)ccc2-c2cn(C)c(=O)cc21 (configuration not stated) : 8.52

###

- ASSAY TARGET: Bromodomain-containing protein 4 (Homo sapiens)
- PROTOCOL DETAILS: Inhibition of recombinant His-tagged BRD4 bromodomain 1 (K57 to E168 residues) (unknown origin) after 1 hr by TR-FRET assay
PROPERTY: IC50 (nM)
Your answer should be a plain number; it is taken to be in nM.

// IC50 value for CCOc1cc(=O)n(C)cc1-c1cc(NC(=O)CCc2ccccc2)ccc1Oc1ccc(F)cc1F : 69

###

So I've got a bunch of molecules here, and I need their IC50 values.
- ASSAY TARGET: Bromodomain-containing protein 4 (Homo sapiens)
- PROTOCOL DETAILS: Inhibition of recombinant human N-terminal His6-tagged BRD4 bromodomain 1 expressed in Escherichia coli BL21(DE3) using biotinylated histone peptide as substrate after 60 mins by TR-FRET assay

Considering [2H]C([2H])([2H])c1nnn(C)c1-c1cnc2c3ccc(C(C)(C)O)cc3n([C@H](c3ccccc3)C3CCC(F)(F)CC3)c2c1 , its IC50 with Bromodomain-containing protein 4 (Homo sapiens) was recorded as < 5 nM

Considering [2H]C([2H])([2H])c1nnn(C)c1-c1cnc2c3ccc(C(C)(C)O)c(F)c3n([C@H](c3ccccc3)C3CCOCC3)c2c1 , its IC50 with Bromodomain-containing protein 4 (Homo sapiens) was recorded as < 5 nM

Considering Cc1nnn(C)c1-c1cnc2c3ccc(C(C)(C)O)c(F)c3n([C@H](c3ccccc3)C3CCOCC3)c2c1 , its IC50 with Bromodomain-containing protein 4 (Homo sapiens) was recorded as < 5 nM

###

- ASSAY TARGET: Bromodomain-containing protein 3 (Homo sapiens, UniProt Q15059)
- Sequence (Q15059 whole entry): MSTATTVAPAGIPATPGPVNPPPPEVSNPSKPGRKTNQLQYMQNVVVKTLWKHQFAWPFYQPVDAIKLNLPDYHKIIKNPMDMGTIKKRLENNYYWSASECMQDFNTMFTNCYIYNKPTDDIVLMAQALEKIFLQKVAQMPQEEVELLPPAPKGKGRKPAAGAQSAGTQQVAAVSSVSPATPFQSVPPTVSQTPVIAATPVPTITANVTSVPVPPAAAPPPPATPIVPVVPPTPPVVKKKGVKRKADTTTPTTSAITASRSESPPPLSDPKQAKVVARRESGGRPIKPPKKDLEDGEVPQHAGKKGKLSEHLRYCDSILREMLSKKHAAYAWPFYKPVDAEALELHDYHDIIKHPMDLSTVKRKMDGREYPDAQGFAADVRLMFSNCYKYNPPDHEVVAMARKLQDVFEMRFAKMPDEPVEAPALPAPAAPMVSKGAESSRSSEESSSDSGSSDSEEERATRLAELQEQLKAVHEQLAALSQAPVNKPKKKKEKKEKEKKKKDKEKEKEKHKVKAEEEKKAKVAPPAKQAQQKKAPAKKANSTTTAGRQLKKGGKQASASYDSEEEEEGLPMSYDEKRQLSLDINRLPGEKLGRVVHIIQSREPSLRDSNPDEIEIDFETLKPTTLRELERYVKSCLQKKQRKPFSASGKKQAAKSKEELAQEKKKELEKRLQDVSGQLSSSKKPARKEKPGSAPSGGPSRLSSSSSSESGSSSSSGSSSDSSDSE
- PROTOCOL DETAILS: Inhibition of poly-His tagged BRD3 bromodomain 2 (unknown origin) expressed in Escherichia coli BL21(DE3) by fluorescence anisotropy assay
pKd: −log10 of the molar value.
PROPERTY: pKd

// pKd value for CC(=O)NCCCCn1c2c(c3ccccc31)C(=O)NCC2 : < 3.52
